Data provenance: patent US20260008760A1

- target: human DPP1 enzyme (Homo sapiens, UniProt P53634)
- assay_overview: Human DPP1 Enzyme IC50 Assay
- Format: biochemical
- Design: was first proteolytically processed into its mature form using recombinant human cathepsin L; purchased R&D Systems
- condition_set: activated recombinant human DPP1, 400 μM H-Gly-Arg-AMC, 10 minutes pre-incubation at 37° C., pH 6.0; average of n runs; read-out: Avg. IC50 (Human DPP1 enzyme IC50 value ranges)
- Sequence (P53634 25-134 limits assumed): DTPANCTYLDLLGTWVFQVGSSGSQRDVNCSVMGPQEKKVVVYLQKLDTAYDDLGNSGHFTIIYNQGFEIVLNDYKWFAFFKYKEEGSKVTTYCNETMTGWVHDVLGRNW
- Sequence (P53634 231-394 limits assumed): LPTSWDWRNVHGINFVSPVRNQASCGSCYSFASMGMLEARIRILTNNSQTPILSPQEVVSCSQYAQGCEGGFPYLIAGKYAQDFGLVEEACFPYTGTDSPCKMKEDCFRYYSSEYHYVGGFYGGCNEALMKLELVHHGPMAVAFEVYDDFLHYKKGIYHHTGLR
- Sequence (P53634 395-463 limits assumed): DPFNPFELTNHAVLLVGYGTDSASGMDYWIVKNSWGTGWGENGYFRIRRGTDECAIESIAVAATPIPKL
pIC50: −log10 of the molar value.
readout: pIC50

Take a look at these entries with their results.
molecule="COC1CNC[C@@H](C(=O)N[C@H](C#N)Cc2ccc(-c3ccc4nnn(C)c4c3)cc2)OC1 (stereo partly drawn) [Compound H12]" reading="> 8.30"
molecule="Cn1nc(F)c2ccc(-c3ccc(C[C@@H](C#N)NC(=O)[C@@H]4CNCC[C@@H](F)CO4)cc3)cc21 [Compound A161]" reading="< 7.82"
molecule="N#C[C@H](Cc1ccc(-c2ccc3c(c2)[C@@]2(CCCN(C4CCCCC4)C2)CS3)cc1)NC(=O)[C@@H]1CNCCCO1 [Compound I9]" reading="7.82 to 8.30"
molecule="N#C[C@H](Cc1ccc(-c2ccc3c(c2)[C@]2(CCN(C#N)C2)SC3)cc1)NC(=O)[C@@H]1CNCCCO1 [Compound I18]" reading="< 7.82"
molecule="CN1CCC(N2CC[C@]3(COCc4ccc(-c5ccc(C[C@@H](C#N)NC(=O)[C@@H]6CNCCCO6)cc5)cc43)C2)CC1 [Compound I8]" reading="7.82 to 8.30"

In: Which pIC50 value belongs to N#C[C@H](Cc1ccc(-c2cnc3c(c2)COCCN3)cc1)NC(=O)[C@@H]1CNCCCO1 [Compound A9] ?
Out: < 7.82

In: Which pIC50 value belongs to N#C[C@H](Cc1ccc(-c2ccc3c(c2)C2(CCNC2)OC3=O)cc1)NC(=O)[C@@H]1CNCCCO1 (stereo partly drawn) [Compound 25] ?
Out: < 7.82

In: Which pIC50 value belongs to CN1CCCC2(C1)C(=O)N(C)c1ccc(-c3ccc(C[C@@H](C#N)NC(=O)[C@@H]4CNCCCO4)cc3)cc12 (stereo partly drawn) [Compound 18] ?
Out: < 7.82

* * *

- target: UniProt P53634
- assay_overview: Human DPP1 Enzyme Single-Point Percent Inhibition Testing (HL-60 lysate)
- Assay type: biochemical
- Parameters: A crude lysate of HL-60 cells (ATCC; Manassas, VA) was used as a source of human DPP1 enzyme; host or cells: HL-60 cells (crude lysate)
- condition_set: final compound concentration of 10 nM, 400 μM H-Gly-Arg-AMC, n = 1
- Sequence (P53634 25-463): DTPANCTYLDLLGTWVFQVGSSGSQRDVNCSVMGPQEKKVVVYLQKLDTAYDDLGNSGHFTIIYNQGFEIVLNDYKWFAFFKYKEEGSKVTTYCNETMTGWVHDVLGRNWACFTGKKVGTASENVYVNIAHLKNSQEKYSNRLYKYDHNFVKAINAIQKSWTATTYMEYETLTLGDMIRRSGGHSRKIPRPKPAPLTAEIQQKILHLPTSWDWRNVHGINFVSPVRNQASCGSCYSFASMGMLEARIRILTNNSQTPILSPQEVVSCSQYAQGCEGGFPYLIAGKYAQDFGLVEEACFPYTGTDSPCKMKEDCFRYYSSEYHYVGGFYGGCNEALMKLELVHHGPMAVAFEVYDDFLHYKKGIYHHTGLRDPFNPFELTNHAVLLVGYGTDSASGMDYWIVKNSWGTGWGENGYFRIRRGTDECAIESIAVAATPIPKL
Measured inhibition at 0.01 µM by item

Take a look at these entries with their results.
molecule="CO[C@H]1CCO[C@H](C(=O)N[C@H](C#N)Cc2ccc(-c3cnc4c(n3)CCCC4)cc2F)CNC1 [Compound A97]" reading="40 to 66.7%"
molecule="CO[C@H]1CCO[C@H](C(=O)N[C@H](C#N)Cc2ccc(-c3ccc4nnn(C)c4c3)cc2F)CNC1 [Compound H20]" reading="40 to 66.7%"
molecule="CO[C@@H]1CCNC[C@@H](C(=O)N[C@H](C#N)Cc2ccc(-c3ccc4c(c3)C3(CCN(C5COC5)CC3)OC4)cc2F)OC1 [Compound F6]" reading="≥ 66.7%"

In: Which inhibition at 0.01 µM value belongs to Cc1ncc(C)n2cc(-c3ccc(C[C@@H](C#N)NC(=O)[C@@H]4CNCCCO4)cc3)cc12 [Compound A140] ?
Out: ≤ 40%

In: Which inhibition at 0.01 µM value belongs to CCN1C(=O)Cc2ccc(-c3ccc(C[C@@H](C#N)NC(=O)[C@@H]4CNCCCO4)c(F)c3)cc21 [Compound G12] ?
Out: 40 to 66.7%

In: Which inhibition at 0.01 µM value belongs to Cn1c(=O)oc2ccc3c(c21)COc1cc(CC(C#N)NC(=O)[C@@H]2CNCCCO2)c(F)cc1-3 (stereo partly shown) [Compound C29] ?
Out: ≤ 40%

In: Which inhibition at 0.01 µM value belongs to CO[C@H]1CCO[C@H](C(=O)N[C@H](C#N)Cc2ccc(-c3ccc4c(c3)C3(CCN(C5COC5)CC3)OC4)cc2F)CNC1 [Compound F5] ?
Out: ≥ 66.7%

In: Which inhibition at 0.01 µM value belongs to CO[C@H]1CCO[C@H](C(=O)NC(C#N)Cc2cc3c(cc2F)-c2ccc(F)cc2CO3)CNC1 (stereo partly shown) [Compound B26] ?
Out: 40 to 66.7%

In: Which inhibition at 0.01 µM value belongs to CN1CCC2(C1)OC(=O)c1ccc(-c3ccc(C[C@@H](C#N)NC(=O)[C@@H]4CNCCCCO4)cc3)cc12 (stereo partly shown) [Compound 38] ?
Out: ≤ 40%

In: Which inhibition at 0.01 µM value belongs to CO[C@@H]1CCNC[C@@H](C(=O)N[C@H](C#N)Cc2ccc(-c3ccc4cnn(C)c4c3)cc2)OC1 [Compound H5] ?
Out: ≥ 66.7%
